Assay: Short-term stability in spiked pooled human plasma (bench-top, 4 °C, 56 °C)
Conditions: validation standard 2xLLOV
metric.name: Short-time stability (24h, RT, without daylight) Accuracy [%] (%)
The answer is to be given in %; state only the numeric part.

Please fill in: Short-time stability (24h, RT, without daylight) Accuracy [%] reported for Nc1cccc2c1CN(C1CCC(=O)NC1=O)C2=O (centres unmarked) [Lenalidomide] = 49.6

compound COc1cc2ncnc(Nc3ccc(F)c(Cl)c3)c2cc1NC(=O)/C=C/CN1CCCCC1 , Short-time stability (24h, RT, without daylight) Accuracy [%] observed: 88.5

The compound CN(C)C(=O)c1cc2cnc(Nc3ccc(N4CCNCC4)cn3)nc2n1C1CCCC1 showed Short-time stability (24h, RT, without daylight) Accuracy [%] equal to 92.7

The reported Short-time stability (24h, RT, without daylight) Accuracy [%] of the compound CCN(CC)CCNC(=O)c1c(C)[nH]c(/C=C2\C(=O)Nc3ccc(F)cc32)c1C was 83.9

Entry Cc1nc(Nc2ncc(C(=O)Nc3c(C)cccc3Cl)s2)cc(N2CCN(CCO)CC2)n1 , Short-time stability (24h, RT, without daylight) Accuracy [%] reported as 98.3

Memo: COc1cc2ncnc(Nc3ccc(F)c(Cl)c3)c2cc1OCCCN1CCOCC1 , reported Short-time stability (24h, RT, without daylight) Accuracy [%]: 92.1

Input CNCc1ccc(-c2[nH]c3cc(F)cc4c3c2CCNC4=O)cc1 . Output Short-time stability (24h, RT, without daylight) Accuracy [%]: 95.8

Note to self: Short-time stability (24h, RT, without daylight) Accuracy [%] recorded for N#CC[C@H](C1CCCC1)n1cc(-c2ncnc3[nH]ccc23)cn1 was 102.0

Per the records, this compound ( CN(C)C/C=C/C(=O)Nc1cc2c(Nc3ccc(F)c(Cl)c3)ncnc2cc1O[C@H]1CCOC1 ) has Short-time stability (24h, RT, without daylight) Accuracy [%] equal to 92.5

Reported Short-time stability (24h, RT, without daylight) Accuracy [%] for Cc1ccc(C(=O)Nc2ccc(CN3CCN(C)CC3)c(C(F)(F)F)c2)cc1C#Cc1cnc2cccnn12 was 98.1

// Short-time stability (24h, RT, without daylight) Accuracy [%] value for COc1cc2c(Nc3ccc(Br)cc3F)ncnc2cc1OCC1CCN(C)CC1 : 94.8

====

Experiment: Long-term stability in spiked pooled human plasma
Conditions: validation standard LLOV
For each record, write down the corresponding Long-term stability, 3 month, -20°C Accuracy [%].
The reply should be a number in %, with the unit left off.

Field Long-term stability, 3 month, -20°C Accuracy [%] (entry CNC(=O)c1cc(Oc2ccc(NC(=O)Nc3ccc(Cl)c(C(F)(F)F)c3)c(F)c2)ccn1 ) reads 94.0

Record summary for Cc1ccc(NC(=O)c2ccc(CN3CCN(C)CC3)cc2)cc1Nc1nccc(-c2cccnc2)n1 : reported Long-term stability, 3 month, -20°C Accuracy [%] = 19.7

Record summary for NC(=O)c1cccc2cn(-c3ccc([C@@H]4CCCNC4)cc3)nc12 : reported Long-term stability, 3 month, -20°C Accuracy [%] = 96.1

Data point: C[C@]12CC[C@H](O)CC1=CC[C@@H]1[C@@H]2CC[C@]2(C)C(c3cccnc3)=CC[C@@H]12 ; Long-term stability, 3 month, -20°C Accuracy [%] = 101.7

# molecule CNCc1ccc(-c2[nH]c3cc(F)cc4c3c2CCNC4=O)cc1 ; its Long-term stability, 3 month, -20°C Accuracy [%] = 109.6

# Long-term stability, 3 month, -20°C Accuracy [%] (molecule: COc1cc2nccc(Oc3ccc(NC(=O)NC4CC4)c(Cl)c3)c2cc1C(N)=O ) is 105.7

Entry CCc1cc2c(cc1N1CCC(N3CCOCC3)CC1)C(C)(C)c1[nH]c3cc(C#N)ccc3c1C2=O , Long-term stability, 3 month, -20°C Accuracy [%] reported as 79.0

CCOc1cc2ncc(C#N)c(Nc3ccc(OCc4ccccn4)c(Cl)c3)c2cc1NC(=O)/C=C/CN(C)C has a reported Long-term stability, 3 month, -20°C Accuracy [%] of 50.3

Given item Nc1cccc2c1CN(C1CCC(=O)NC1=O)C2=O (stereo not shown) [Lenalidomide] , the value recorded as its Long-term stability, 3 month, -20°C Accuracy [%] is 69.1

Item: O=C(Nc1cnn2ccc(N3CCC[C@@H]3c3cc(F)ccc3F)nc12)N1CC[C@H](O)C1 | Long-term stability, 3 month, -20°C Accuracy [%]: 96.4

# Long-term stability, 3 month, -20°C Accuracy [%] (molecule: CNC(=O)c1ccccc1Sc1ccc2c(/C=C/c3ccccn3)n[nH]c2c1 ) is 107.3

// field: Long-term stability, 3 month, -20°C Accuracy [%]; key: COc1cc2c(Nc3ccc(Br)cc3F)ncnc2cc1OCC1CCN(C)CC1 ; value = 87.6

Long-term stability, 3 month, -20°C Accuracy [%] in this record for CCCS(=O)(=O)Nc1ccc(F)c(C(=O)c2c[nH]c3ncc(-c4ccc(Cl)cc4)cc23)c1F : 106.2
